The following proteins are listed with their measured pKd values.
Target: the molecule itself
Experiment: native mass spectrometry; monomer-dimer equilibrium of the hinge-less CH2-CH3 fragment (homodimer)
The quantity pKd is defined as the negative base-10 logarithm of the molar concentration.

protein	pKd
CH2-CH3 fragment of human IgG1 with K370T (other, UniProt P01857-1 224-330, looked up, name in EU numbering, range 341-447; As m1, with the mutation; also called G1-K370T; not shown: N-terminal 6 amino acid His tag) GQPREPQVYTLPPSRDELTKNQVSLTCLVTGFYPSDIAVEWESNGQPENNYKTTPPVLDSDGSFFLYSKLTVDKSRWQQGNVFSCSVMHEALHNHYTQKSLSLSPGK	7.35

Here's the next entry for you.
Q) Specify pKd for CH2-CH3 fragment of human IgG1 with T350I (other, UniProt P01857-1 224-330, looked up, name in EU numbering, range 341-447; As m1, with the mutation; also called G1-T350I; not shown: N-terminal 6 amino acid His tag) GQPREPQVYILPPSRDELTKNQVSLTCLVKGFYPSDIAVEWESNGQPENNYKTTPPVLDSDGSFFLYSKLTVDKSRWQQGNVFSCSVMHEALHNHYTQKSLSLSPGK and stop.
A) 8.15
